In this section we review reported melting point values for a set of compounds.
readout: melting point (°C)

CC(=O)Nc1ccc2c(c1)C(=O)/C(=C/c1cccc(C(F)(F)F)c1)O2	252.1
COc1ccccc1/C=C1\Oc2ccc(N)cc2C1=O	189.3
CC(=O)Nc1ccc2c(c1)C(=O)/C(=C/c1ccccc1F)O2	226
